# tested-on: Cholecystokinin receptor type A (Rattus norvegicus, UniProt P30551)
# Sequence (P30551 whole entry): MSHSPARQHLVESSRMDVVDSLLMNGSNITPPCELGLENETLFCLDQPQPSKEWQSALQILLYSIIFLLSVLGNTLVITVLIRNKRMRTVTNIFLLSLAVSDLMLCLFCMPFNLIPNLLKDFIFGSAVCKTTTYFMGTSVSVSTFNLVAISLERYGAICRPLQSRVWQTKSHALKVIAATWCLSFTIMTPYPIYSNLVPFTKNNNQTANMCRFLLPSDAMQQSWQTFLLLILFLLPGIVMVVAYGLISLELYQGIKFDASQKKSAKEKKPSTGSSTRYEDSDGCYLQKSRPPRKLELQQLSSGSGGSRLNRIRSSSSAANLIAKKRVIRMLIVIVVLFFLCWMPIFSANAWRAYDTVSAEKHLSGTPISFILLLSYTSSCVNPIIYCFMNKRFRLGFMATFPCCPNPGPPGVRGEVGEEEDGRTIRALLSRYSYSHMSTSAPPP
Below, each entry is listed alongside its reported pIC50.
Quick note: pIC50 means taking -log10 of the concentration in moles per liter.

compound: CC(C)(C)CC(=O)N[C@@H](Cc1c[nH]c2ccccc12)C(=O)N[C@@H]1CCCN2C(=O)N(Cc3ccccc3)C(=O)CC12 (single isomer, unassigned)
pIC50: 8.35

Challenge: Tell me reported pIC50 for CC(C)(C)OC(=O)N[C@@](C)(Cc1c[nH]c2ccccc12)C(=O)N[C@@H]1CCCN2C(=O)N(Cc3ccccc3)C(=O)C[C@@H]12.CC(C)(C)OC(=O)N[C@@](C)(Cc1c[nH]c2ccccc12)C(=O)N[C@H]1CCCN2C(=O)N(Cc3ccccc3)C(=O)C[C@H]12 (single isomer, unassigned) , tested with Cholecystokinin receptor type A (Rattus norvegicus, UniProt P30551).
Response given: 7.37

Challenge: Tell me reported pIC50 for "CC(C)(C)OC(=O)N[C@@H](Cc1c[nH]c2ccccc12)C(=O)N[C@H]1CCCN2C(=O)N(Cc3ccccc3)C(=O)C[C@@H]12" , tested with Cholecystokinin receptor type A (Rattus norvegicus, UniProt P30551).
Response given: 7.64

---

Below, each entry is listed alongside its reported Increase in plasma lipase.
# Test system: Rattus norvegicus
# assay-overview: Compound (CCK1 antagonist) was administered orally for the effect of increase in plasma lipase activity induced by caerulein in rat at the dose of 0.1 mg/kg
# Format: functional
# measurement-conditions: route oral
Numbers only here, please. The scale is IU ml-1.

Examples with their reported Increase in plasma lipase follow.
compound: CC(C)(C)OC(=O)N[C@@H](Cc1c[nH]c2ccccc12)C(=O)N[C@@H]1CCCN2C(=O)N(Cc3ccccc3)C(=O)CC12 (single isomer, unassigned)
tested-on: Rattus norvegicus
result-unit: IU ml-1
Increase in plasma lipase: 2837
//
compound: CC(C)(C)NC(=O)N[C@@H](Cc1c[nH]c2ccccc12)C(=O)N[C@@H]1CCCN2C(=O)N(Cc3ccccc3)C(=O)CC12 (single isomer, unassigned)
tested-on: Rattus norvegicus
result-unit: IU ml-1
Increase in plasma lipase: 2200
//
compound: CN1C(=O)[C@@H](NC(=O)c2cc3ccccc3[nH]2)N=C(c2ccccc2)c2ccccc21 [DEVAZEPIDE]
tested-on: Rattus norvegicus
result-unit: IU ml-1
Increase in plasma lipase: 871

Here is another compound to look at.
Challenge: Param item = CC(C)(C)CC(=O)N[C@@H](Cc1c[nH]c2ccccc12)C(=O)N[C@@H]1CCCN2C(=O)N(Cc3ccccc3)C(=O)CC12 (single isomer, unassigned) ; retrieve measured Increase in plasma lipase.
Response given: 3089

---

Below, each entry is listed alongside its reported Increase in plasma amylase.
# Test system: Rattus norvegicus
# assay-overview: Compound (CCK1 antagonist) was administered intraperitoneally for the effect of increase in plasma amylase activity induced by caerulein in rat at the dose of 1 mg/kg
# Type: functional
# measurement-conditions: route intraperitoneal
Numbers only here, please. The scale is IU ml-1.

molecule: CC(C)(C)CC(=O)N[C@@H](Cc1c[nH]c2ccccc12)C(=O)N[C@@H]1CCCN2C(=O)N(Cc3ccccc3)C(=O)CC12 (single isomer, unassigned)
result-unit: IU ml-1
Increase in plasma amylase: 28015

molecule: CC(C)(C)NC(=O)N[C@@H](Cc1c[nH]c2ccccc12)C(=O)N[C@@H]1CCCN2C(=O)N(Cc3ccccc3)C(=O)CC12 (single isomer, unassigned)
result-unit: IU ml-1
Increase in plasma amylase: 5326

molecule: CN1C(=O)[C@@H](NC(=O)c2cc3ccccc3[nH]2)N=C(c2ccccc2)c2ccccc21 [DEVAZEPIDE]
result-unit: IU ml-1
Increase in plasma amylase: 3650

Here is another molecule to look at.
Challenge: Param item = CC(C)(C)OC(=O)N[C@@H](Cc1c[nH]c2ccccc12)C(=O)N[C@@H]1CCCN2C(=O)N(Cc3ccccc3)C(=O)CC12 (single isomer, unassigned) [IQM-95333] ; retrieve measured Increase in plasma amylase.
Response given: 2721
